Assay name: Cycloheximide Counterscreen for Small Molecule Inhibitors of Shiga Toxin; note: read at 38.3 µM for the half of the compounds with a filed dose; 0% is about no effect
Run parameters: cell reporter, cycloheximide protein synthesis inhibition counterscreen; hits give high values
About 37,000 (12%) of roughly 300,000 compounds were called active. This excerpt belongs to a sample that is enriched for actives.
Outcome measure: max response (%)
Field format: number, assumed %, no unit text.

What does the data say about its max response? Entry: COc1ccc(OCCNS(=O)(=O)Cc2ccccc2)cc1
-3.58

What does the data say about its max response? Entry: Cn1c(=O)c2c(ncn2CC(COCc2ccccc2Cl)OCc2ccccc2Cl)n(C)c1=O (centres undefined)
-1.13

What does the data say about its max response? Entry: CC(C)CC(COCc1ccc(Cl)cc1)N1CCN(C(=O)c2ccc(C(F)(F)F)cc2)CCC1=O (centres undefined)
-2.17

What does the data say about its max response? Entry: COc1ccc(/C=C/c2nnc(NC(=O)C(C)C)s2)cc1
13.9

What does the data say about its max response? Entry: COCc1cc(=O)[nH]c(-c2ccc(C(F)(F)F)cc2)n1
-0.991
